System: rodent lifetime carcinogenesis bioassay, tumor incidence TD50
assay-notes: carcinogenic potency in animals, long-term in vivo studies, CPDB compilation (AID 1745844)
experimental-context: rat; strain Fischer 344; males; inhaled; site: liver; lesion: several types; types named in the paper; dosed 113 weeks; study length 113 weeks
measured-quantity: TD50

Query: For the molecule CCC(C)=NO , give its reported TD50.
Reply: 74.5 mg/kg/day

---

Test system: rodent lifetime carcinogenesis bioassay, tumor incidence TD50
assay-notes: carcinogenic potency in animals, long-term in vivo studies, CPDB compilation (AID 1745844)
experimental-context: mouse; strain B6AKF1; females; oral dosing; site: liver; lesion: hepatoma; dosed 73 weeks; study length 73 weeks
measured-quantity: TD50 (mg/kg/day)
// return numeric value only (unit: mg/kg/day, not printed)

Query: Report its TD50 with rodent lifetime carcinogenesis bioassay, tumor incidence TD50 as the test system: CCOC(N)=O
Reply: 89.9

---

System: rodent lifetime carcinogenesis bioassay, tumor incidence TD50
assay-notes: carcinogenic potency in animals, long-term in vivo studies, CPDB compilation (AID 1745844)
experimental-context: mouse; strain B6C3F1; males; oral dosing; site: liver; lesion: hepatoma; dosed 70 weeks; study length 70 weeks
measured-quantity: TD50

Query: Specify TD50 for CCOC(N)=O and stop.
Reply: 81.7 mg/kg/day

---

System: rodent lifetime carcinogenesis bioassay, tumor incidence TD50
assay-notes: carcinogenic potency in animals, long-term in vivo studies, CPDB compilation (AID 1745844)
experimental-context: mouse; strain B6C3F1; females; inhaled; site: liver; lesion: hepatocellular carcinoma; dosed 83 weeks; study length 104 weeks
measured-quantity: TD50 (mg/kg/day)
// return numeric value only (unit: mg/kg/day, not printed)

Query: Tell us which TD50 value is on record for C=CC=C
Reply: 50.5

---

Tested on: rodent lifetime carcinogenesis bioassay, tumor incidence TD50
assay-notes: carcinogenic potency in animals, long-term in vivo studies, CPDB compilation (AID 1745844)
experimental-context: mouse; strain B6C3F1; females; by gavage; site: liver; lesion: hepatocellular adenoma + hepatocellular carcinoma; dosed 53 weeks; study length 93 weeks
Active and inactive are the calls of the source. No rule for the calls is given here.
measured-quantity: TD50

Query: For the molecule COc1ccc(N)c(C)c1 , give its reported TD50.
Reply: 206 mg/kg/day (inactive)

---

Test system: rodent lifetime carcinogenesis bioassay, tumor incidence TD50
assay-notes: carcinogenic potency in animals, long-term in vivo studies, CPDB compilation (AID 1745844)
experimental-context: mouse; strain B6C3F1; males; by gavage; site: any site (literature study); lesion: several types; types named in the paper; dosed 103 weeks; study length 106 weeks
measured-quantity: TD50 (mg/kg/day)
Give just the numeric value; mg/kg/day need not be written.

Sample records with TD50:
INSERT INTO measurements (record_smiles, units_symbol, measured_result) VALUES
  ('BrC(Br)Br', 'mg/kg/day', 41),
  ('C=CCOC(=O)c1ccccc1C(=O)OCC=C', 'mg/kg/day', 717);

Turning now to a further record.
Query: Under rodent lifetime carcinogenesis bioassay, tumor incidence TD50, report TD50 for C=CCOC(=O)CC(C)C
Reply: 206

---

Test system: rodent lifetime carcinogenesis bioassay, tumor incidence TD50
assay-notes: carcinogenic potency in animals, long-term in vivo studies, CPDB compilation (AID 1745844)
experimental-context: rat; strain Fischer 344; females; in drinking water; site: palate + pharynx + tongue; lesion: squamous-cell carcinoma + squamous-cell papilloma; dosed 91 weeks; study length 93 weeks
measured-quantity: TD50

Query: Determine from records and report TD50 for COc1cc(-c2ccc(N)c(OC)c2)ccc1N
Reply: 13.8 mg/kg/day

---

System: rodent lifetime carcinogenesis bioassay, tumor incidence TD50
assay-notes: carcinogenic potency in animals, long-term in vivo studies, CPDB compilation (AID 1745844)
experimental-context: rat; strain Fischer 344; females; in feed; site: liver; lesion: adenoma, NOS; dosed 105 weeks; study length 105 weeks
measured-quantity: TD50

Query: Input Clc1cccc(-c2ccc(Cl)c(Cl)c2Cl)c1Cl , output reported TD50.
Reply: 34.8 mg/kg/day

---

Test system: rodent lifetime carcinogenesis bioassay, tumor incidence TD50
assay-notes: carcinogenic potency in animals, long-term in vivo studies, CPDB compilation (AID 1745844)
experimental-context: rat; strain Fischer 344; females; in feed; site: multiple organs; lesion: angiosarcoma + fibrosarcoma + osteosarcoma + sarcoma, NOS; dosed 104 weeks; study length 104 weeks
measured-quantity: TD50

Query: Specify TD50 for Cc1ccccc1N and stop.
Reply: 332 mg/kg/day

---

Tested on: rodent lifetime carcinogenesis bioassay, tumor incidence TD50
assay-notes: carcinogenic potency in animals, long-term in vivo studies, CPDB compilation (AID 1745844)
experimental-context: rat; strain Fischer 344; females; in feed; site: kidney; lesion: tubule adenoma + tubule carcinoma; dosed 40 weeks; study length 66 weeks
measured-quantity: TD50 (mg/kg/day)
# output: bare number, implied unit mg/kg/day

Query: Query TD50 for Nc1c(Br)cc(Br)c2c1C(=O)c1ccccc1C2=O
Reply: 418

---

Tested on: rodent lifetime carcinogenesis bioassay, tumor incidence TD50
assay-notes: carcinogenic potency in animals, long-term in vivo studies, CPDB compilation (AID 1745844)
experimental-context: rat; strain Fischer 344; males; in feed; site: liver; lesion: hepatocellular carcinoma + neoplastic nodule; dosed 91 weeks; study length 103 weeks
measured-quantity: TD50

Query: For Cc1ccc(N)cc1N , write its TD50.
Reply: 8.11 mg/kg/day

---

Test system: rodent lifetime carcinogenesis bioassay, tumor incidence TD50
assay-notes: carcinogenic potency in animals, long-term in vivo studies, CPDB compilation (AID 1745844)
experimental-context: mouse; strain B6C3F1; males; inhaled; site: liver; lesion: hepatoblastoma + hepatocellular carcinoma; dosed 13 weeks; study length 104 weeks
measured-quantity: TD50 (mg/kg/day)
# value in mg/kg/day; strip the unit string

Query: // fetch TD50 given entry C=CC=C
Reply: 23.4

---

System: rodent lifetime carcinogenesis bioassay, tumor incidence TD50
assay-notes: carcinogenic potency in animals, long-term in vivo studies, CPDB compilation (AID 1745844)
experimental-context: rat; strain Sprague-Dawley; males; in feed; site: urinary bladder; lesion: urothelial papilloma; dosed 112 weeks; study length 112 weeks
measured-quantity: TD50

Query: Report measured TD50; entry is S=C(SN1CCOCC1)N1CCOCC1
Reply: 457 mg/kg/day

---

Tested on: rodent lifetime carcinogenesis bioassay, tumor incidence TD50
assay-notes: carcinogenic potency in animals, long-term in vivo studies, CPDB compilation (AID 1745844)
experimental-context: rat; strain Charles River CD (Sprague-Dawley); females; in feed; site: mammary gland; lesion: several types; types named in the paper; dosed 78 weeks; study length 78 weeks
measured-quantity: TD50 (mg/kg/day)
Just the number in mg/kg/day, nothing appended.

Query: Output TD50 of CCN(CC)C(=S)SSC(=S)N(CC)CC
Reply: 68.9

---

System: rodent lifetime carcinogenesis bioassay, tumor incidence TD50
assay-notes: carcinogenic potency in animals, long-term in vivo studies, CPDB compilation (AID 1745844)
experimental-context: mouse; strain C57BL; females; by gavage; site: any site (literature study); lesion: several types; types named in the paper; dosed 50 weeks; study length 72 weeks
measured-quantity: TD50 (mg/kg/day)
I only need the number, in mg/kg/day, no unit after it.

Query: Give the reported value of TD50 for this record: CN(C)N=O
Reply: 0.0964

---

System: rodent lifetime carcinogenesis bioassay, tumor incidence TD50
assay-notes: carcinogenic potency in animals, long-term in vivo studies, CPDB compilation (AID 1745844)
experimental-context: mouse; strain C3H/HeN; males; in feed; site: liver; lesion: hepatocellular carcinoma; dosed 52 weeks; study length 52 weeks
measured-quantity: TD50 (mg/kg/day)
Your answer should be a plain number; it is taken to be in mg/kg/day.

INSERT INTO assay_data (compound, measured_result) VALUES
  ('C[N+](C)(C)CCO', 6060);

Query: Output measured TD50 for this item: CSCCC(N)C(=O)O (configuration not stated)
Reply: 4470

---

Tested on: rodent lifetime carcinogenesis bioassay, tumor incidence TD50
assay-notes: carcinogenic potency in animals, long-term in vivo studies, CPDB compilation (AID 1745844)
experimental-context: rat; strain Fischer; females; in feed; site: forestomach; lesion: several types; types named in the paper; dosed 52 weeks; study length 68 weeks
measured-quantity: TD50

Query: Quickly give me recorded TD50 for Nc1nc(-c2ccc([N+](=O)[O-])o2)cs1
Reply: 5.85 mg/kg/day

---

Test system: rodent lifetime carcinogenesis bioassay, tumor incidence TD50
assay-notes: carcinogenic potency in animals, long-term in vivo studies, CPDB compilation (AID 1745844)
experimental-context: rat; strain Fischer 344; females; in feed; site: cecum + colon + rectum; lesion: polypoid adenoma; dosed 40 weeks; study length 66 weeks
measured-quantity: TD50
State the value with its unit after it.

Query: Identify measured TD50 corresponding to Nc1c(Br)cc(Br)c2c1C(=O)c1ccccc1C2=O
Reply: 217 mg/kg/day

---

System: rodent lifetime carcinogenesis bioassay, tumor incidence TD50
assay-notes: carcinogenic potency in animals, long-term in vivo studies, CPDB compilation (AID 1745844)
experimental-context: mouse; strain B6C3F1; males; inhaled; site: lung; lesion: alveolar/bronchiolar adenoma + alveolar/bronchiolar carcinoma; dosed 105 weeks; study length 105 weeks
measured-quantity: TD50 (mg/kg/day)
Numbers only; they are read as mg/kg/day.

Query: Check the records and state TD50 for [O]=[Mo](=[O])=[O]
Reply: 3.21
